The measurements presented in this section are drawn from PubChem BioAssay (NCI).

Test system: MDA-MB-435 melanoma
Test: NCI-60 one-dose screen, 48 h
Conditions: 10 µM unless noted
The panel holds about 83,000 compounds, 20% with a hit somewhere; the sample as a whole holds those more often. Active and inactive are the calls of the source. Rule for the calls: active = growth percent below 10; inactive = the rest.
Outcomes: active, inactive

[
  {
    "COMPOUND": "CCN(CC)C(=O)N/C(N)=N/c1nc2ccccc2s1",
    "CAT": "inactive"
  },
  {
    "COMPOUND": "CN(C)c1nc(NCCNS(=O)(=O)c2ccc(C3=Nc4c(N)nc(N)nc4NC(c4ccc(C(F)(F)F)cc4)C3)cc2)nc(Nc2ccc(F)cc2)n1 (centres undefined)",
    "CAT": "active"
  },
  {
    "COMPOUND": "S=C(Nc1ccc(OCc2nc3ccccc3[nH]2)cc1)NC1CCCCC1",
    "CAT": "inactive"
  },
  {
    "COMPOUND": "CC(=O)Nc1ccc(-n2cnc3cc(-c4ccc(O)cc4)ccc32)cc1C(F)(F)F",
    "CAT": "active"
  },
  {
    "COMPOUND": "C/C(=N\\N=C\\c1cc([N+](=O)[O-])ccc1Cl)c1ccc2c(c1)Nc1ccccc1S2",
    "CAT": "inactive"
  },
  {
    "COMPOUND": "Cc1cccc(-c2nc(Nc3cccc(S(N)(=O)=O)c3)c3ccccc3n2)c1",
    "CAT": "inactive"
  },
  {
    "COMPOUND": "Cc1ccc(/C=C/c2n(Cc3ccc4ccccc4c3)c3ccccc3[n+]2Cc2ccc3ccccc3c2)cc1",
    "CAT": "active"
  },
  {
    "COMPOUND": "CC1(C)CC[C@]2(C(=O)O)CC[C@]3(C)C(=CCC4[C@@]5(C)C[C@@H](O)[C@@H]6OC(c7ccco7)OC[C@@]6(C)C5CC[C@]43C)C2C1 (some centres undefined)",
    "CAT": "inactive"
  },
  {
    "COMPOUND": "COc1ccc(/C=N/NC(=O)Cn2nc(Cc3ccc(OC)cc3)c3onc(C)c3c2=O)cc1",
    "CAT": "inactive"
  }
]
